Tested on: Wnt5a (protein binding on small-molecule microarray)
Test: Wnt5a binders on small-molecule microarray, primary screen, biophysical, 635/667 nm fluorescence (AID 1142);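 also: fluorescence read at 667 nm with signal to noise per printed feature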
Conditions: 635 nm fluorescence, higher = more signal
Reported composite z-score values are given for each entry in this list.
value-kind: composite z-score

O=C1CCCC2OC12C(O)CCc1ccccc1 (stereo not given) :: 0.154
C=COC[C@H]1CN2[C@@H](CC[C@@H](C)[C@@H]2c2ccc(Br)cc2)C(=O)O1 :: 0.52
CC(C)CON=C1C[C@@H](O)[C@@H](O)[C@@H]2[C@@H]3C(=O)N(Cc4ccccc4)C(=O)[C@@H]3CC[C@@H]12 :: 0.0819
C=CC[C@@H]1C=C[C@H](ON=C2c3cc(OC)ccc3O[C@H](c3cccc(OC)c3)[C@H]2O)[C@@H](CO)O1 :: -0.0596
CCN(CC)c1ccc(N2CC=CC34O[C@@H]5/C=C\CCC(C)OC(=O)C5[C@H]3C(=O)N(CCCO)[C@@H]4C2=O)cc1 (stereo not given in full) :: 0.0023
CN1C(=O)C2C=CC(C(O)c3ccc(Br)cc3)N(N(c3ccccc3)c3ccccc3)C2C1=O (stereo not given) :: -0.0158
COCCCNC(=O)[C@]1(Cc2ccccc2)N=C(c2ccc(OCCCO)cc2)O[C@@H]1c1ccccc1 :: 0.424
CCOc1ccc(N2C(=O)/C(=C/C=C/c3ccccc3OC)S(=O)(=O)C2c2cccc([N+](=O)[O-])c2)cc1 (stereo not given) :: -0.0676
CCOC(=O)[C@H](Cc1ccccc1)NC(=O)CCC1CC(OC(=O)NCCc2ccc(F)cc2)CC2(CCCC(COC(=O)NCC(c3ccccc3)c3ccccc3)O2)O1 (stereo not given in full) :: 0.0879
O=C1[C@H]2[C@H]3[C@H](O)[C@H](O)CC(=NO[C@@H]4O[C@H](CO)[C@@H](O)[C@H](O)[C@H]4O)[C@H]3CC[C@H]2C(=O)N1C1CCCCC1 :: -0.0314
O=C1[C@H]2[C@H]3[C@H](O)[C@H](O)CC(=NOC[C@@H](O)COCc4ccco4)[C@H]3CC[C@H]2C(=O)N1C1CCCCC1 :: 0.257
COC(=O)[C@@H]1CC[C@H](C)[C@@H](c2ccc(C)cc2)N1C(=O)c1ccc(C=NOC(C)CN2CCCCc3nc(C)c(C)cc32)cc1 (stereo not given in full) :: 0.595
O=C1[C@H]2[C@H]3[C@H](O)[C@H](O)CC(=NOC[C@@H](O)COCc4ccco4)[C@H]3CC[C@H]2C(=O)N1c1cccc(Oc2ccccc2)c1 :: -0.31
CCCC=C(CCC)[C@@H](NC(=O)c1ccc(-c2ccccc2)cc1)c1ccc(C(=O)OC)cc1 :: -0.0745
O=C1C2=CC[C@H]3C(=O)N(Cc4ccc5c(c4)OCO5)C(=O)[C@H]3[C@H]2[C@H](O)[C@@H]2O[C@H]12 :: -0.0194
